Quick reference for Ki among some molecules
# target: hCA I (Homo sapiens, UniProt P00915)
# Construct: made in house
# Sequence (P00915 whole entry): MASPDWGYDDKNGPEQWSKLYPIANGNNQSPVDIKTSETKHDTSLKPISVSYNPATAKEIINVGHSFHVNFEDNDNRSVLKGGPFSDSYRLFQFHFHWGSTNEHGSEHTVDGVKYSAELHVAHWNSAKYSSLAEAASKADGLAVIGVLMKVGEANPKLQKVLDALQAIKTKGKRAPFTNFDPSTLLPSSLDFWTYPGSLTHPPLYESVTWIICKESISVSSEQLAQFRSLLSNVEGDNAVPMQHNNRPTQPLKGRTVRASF
# assay.comment: CA-catalysed CO2 hydration stopped-flow inhibition assay, hCA I
# Format: biochemical
# applied.conditions: Table 1, sulfamates 3
Please give a number only; it is taken to be in µM.

> print(dat)
                                   molecule  quantity  unit.tag  readout.value
1  CN1CCN(CCNC(=O)Nc2ccc(OS(N)(=O)=O)cc2)CC1        Ki        µM            4.1

Exercise: Enter recorded Ki with hCA I (Homo sapiens, UniProt P00915) for NS(=O)(=O)Oc1ccc(NC(=O)NC23CC4CC(CC(C4)C2)C3)cc1 [Compound 3u, 4-[(1-adamantyl)ureido]phenyl sulfamate] here.
Solution: 43
